# Assayed System: Recombinant human his-tagged IGF 1R extracellular domain protein (human) (UniProt P08069)
# Assay Comment: SPR, captured IgG, IGF-1R ECD-his analyte, dissociation pH 7.4
Assay Metric: Kd (nM)
Output spec: scalar in nM, unitless text.

Field: example entries. Status: answers known.
VRDN-02549 (antibody, V domains shown) VH: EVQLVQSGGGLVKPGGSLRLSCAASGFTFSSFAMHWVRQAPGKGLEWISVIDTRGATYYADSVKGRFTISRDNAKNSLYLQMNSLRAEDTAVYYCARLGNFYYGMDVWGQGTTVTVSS VL: EIVLTQSPGTLSVSPGERATLSCRASQSIGSSLHWYQQKPGQAPRLLIKYASQSLSGIPDRFSGSGSGTDFTLTISRLEPEDFAVYYCHQSSHLPHTFGQGTKVEIK | 0.327
VRDN-02556 (antibody, V domains shown) VH: EVQLVQSGGGLVKPGGSLRLSCAASGFTFSSFAMHWVRQAPGKGLEWISVIDTRGATYYADSVKGRFTISRDNAKNSLYLQMNSLRAEDTAVYYCARLGNFYYHMDVWGQGTTVTVSS VL: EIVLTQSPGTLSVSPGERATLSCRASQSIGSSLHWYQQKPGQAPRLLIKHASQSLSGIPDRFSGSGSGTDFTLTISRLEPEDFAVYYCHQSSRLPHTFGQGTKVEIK | 10.4
VRDN-02510 (antibody, V domains shown) VH: EVQLVQSGGGLVKPGGSLRLSCAASGFTFSSFAMHWVRQAPGKGLEWISVIHTRGATYYADSVKGRFTISRDNAKNSLYLQMNSLRAEDTAVYYCARLGNFYYGMDVWGQGTTVTVSS VL: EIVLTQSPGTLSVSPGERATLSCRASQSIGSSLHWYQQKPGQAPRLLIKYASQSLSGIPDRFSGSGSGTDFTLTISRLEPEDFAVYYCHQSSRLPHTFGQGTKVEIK | 0.214
VRDN-02550 (antibody, V domains shown) VH: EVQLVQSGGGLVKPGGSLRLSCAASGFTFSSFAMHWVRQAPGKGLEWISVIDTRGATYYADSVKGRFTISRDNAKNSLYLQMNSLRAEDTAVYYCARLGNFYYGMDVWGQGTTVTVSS VL: EIVLTQSPGTLSVSPGERATLSCRASQSIGSSLHWYQQKPGQAPRLLIKYASQSLSGIPDRFSGSGSGTDFTLTISRLEPEDFAVYYCHQSSRHPHTFGQGTKVEIK | 0.131
VRDN-02504 (antibody, V domains shown) VH: EVQLVQSGGGLVKPGGSLRLSCAASGFTHSSFAMHWVRQAPGKGLEWISVIDTRGATYYADSVKGRFTISRDNAKNSLYLQMNSLRAEDTAVYYCARLGNFYYGMDVWGQGTTVTVSS VL: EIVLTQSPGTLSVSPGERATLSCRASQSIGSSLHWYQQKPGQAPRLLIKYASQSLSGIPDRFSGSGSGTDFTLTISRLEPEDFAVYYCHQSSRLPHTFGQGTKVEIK | 5.08
VRDN-02529 (antibody, V domains shown) VH: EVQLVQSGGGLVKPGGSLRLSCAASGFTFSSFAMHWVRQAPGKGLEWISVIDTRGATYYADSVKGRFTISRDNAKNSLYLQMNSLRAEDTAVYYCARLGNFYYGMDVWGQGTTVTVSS VL: EIVLTQSPGTLSVSPGERATLSCRHSQSIGSSLHWYQQKPGQAPRLLIKYASQSLSGIPDRFSGSGSGTDFTLTISRLEPEDFAVYYCHQSSRLPHTFGQGTKVEIK | 3.8
VRDN-02503 (antibody, V domains shown) VH: EVQLVQSGGGLVKPGGSLRLSCAASGFHFSSFAMHWVRQAPGKGLEWISVIDTRGATYYADSVKGRFTISRDNAKNSLYLQMNSLRAEDTAVYYCARLGNFYYGMDVWGQGTTVTVSS VL: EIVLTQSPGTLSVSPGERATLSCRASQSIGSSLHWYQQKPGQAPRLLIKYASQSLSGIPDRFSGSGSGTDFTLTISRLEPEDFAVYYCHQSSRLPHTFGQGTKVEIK | 1.53
VRDN-02532 (antibody, V domains shown) VH: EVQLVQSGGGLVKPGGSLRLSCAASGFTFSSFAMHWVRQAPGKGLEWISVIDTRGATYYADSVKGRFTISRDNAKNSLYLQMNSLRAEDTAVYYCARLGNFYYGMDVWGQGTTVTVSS VL: EIVLTQSPGTLSVSPGERATLSCRASQHIGSSLHWYQQKPGQAPRLLIKYASQSLSGIPDRFSGSGSGTDFTLTISRLEPEDFAVYYCHQSSRLPHTFGQGTKVEIK | 0.316

Query :: For VRDN-02548 (antibody, V domains shown) VH: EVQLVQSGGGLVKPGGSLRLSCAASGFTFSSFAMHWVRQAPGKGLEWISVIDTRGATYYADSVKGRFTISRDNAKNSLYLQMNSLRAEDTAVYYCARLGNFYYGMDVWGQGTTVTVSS VL: EIVLTQSPGTLSVSPGERATLSCRASQSIGSSLHWYQQKPGQAPRLLIKYASQSLSGIPDRFSGSGSGTDFTLTISRLEPEDFAVYYCHQSHRLPHTFGQGTKVEIK , what is its reported Kd?
Result :: 0.721

Query :: For VRDN-02500 (antibody, human IgG1, kappa, V domains shown) VH: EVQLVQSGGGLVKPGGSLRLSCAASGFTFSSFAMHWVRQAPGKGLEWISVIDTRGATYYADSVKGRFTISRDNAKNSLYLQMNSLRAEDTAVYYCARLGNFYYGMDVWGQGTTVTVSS VL: EIVLTQSPGTLSVSPGERATLSCRASQSIGSSLHWYQQKPGQAPRLLIKYASQSLSGIPDRFSGSGSGTDFTLTISRLEPEDFAVYYCHQSSRLPHTFGQGTKVEIKR , what is its reported Kd?
Result :: 0.626
